Tested on: MOLT-4 leukemia
Experiment: NCI-60 one-dose screen, 48 h (100 = growth as untreated, 0 = no growth, -100 = all killed)
Conditions: 10 µM unless noted
The panel holds about 83,000 compounds, 20% with a hit somewhere; the sample as a whole holds those more often.
TEST READOUT: growth (%)
Express the result in % but write the number alone.

Solved cases (5 shown):
STRUCTURE STRING	ASSAY SYSTEM	TEST READOUT	UNIT NAME	OBSERVED VALUE
Cl[C@@H]1CCO[C@H](c2cc3ccccc3c3ccccc23)C1	MOLT-4 leukemia	growth	%	98
O=C(COc1ccc(Cl)cc1)N1CCN(Cc2ccc3c(c2)OCO3)CC1	MOLT-4 leukemia	growth	%	100
c1ccc2nc(Cn3cc[n+](Cc4ccc5ccccc5n4)c3)ccc2c1	MOLT-4 leukemia	growth	%	65.4
CCOc1ccc(NC2=C(Cl)C(=O)c3ccccc3C2=O)cc1	MOLT-4 leukemia	growth	%	75.7
COc1ccc(-c2nnc(SCC(=O)Nc3ccc(C(=O)/C=C/c4ccccc4)cc3)o2)cc1OC	MOLT-4 leukemia	growth	%	89.1

Complete the entry with growth for O=S(=O)(O)c1ccc(F)cc1
98.5

###

System: SF-539 CNS
Experiment: NCI-60 one-dose screen, 48 h (100 = growth as untreated, 0 = no growth, -100 = all killed)
Conditions: 10 µM unless noted
The panel holds about 83,000 compounds, 20% with a hit somewhere; the sample as a whole holds those more often.
# growth per record follows
Express the result in % but write the number alone.

Solved cases (3 shown):
MOLECULE	ASSAY SYSTEM	growth, %
CC(=O)N1N=C2N(Cc3ccccc3)C(=O)c3c(sc4c3CCCC4)N2C1c1cn(-c2ccccc2)nc1-c1ccc(Cl)cc1 (stereo unspecified)	SF-539 CNS	92.6
O=C1OC(=O)C2C3CC(c4ccccc43)C12 (stereo unspecified)	SF-539 CNS	103
COc1ccc(CCNC=O)cc1OC	SF-539 CNS	91.5

Complete the entry with growth for Oc1ccc(Cl)cc1Sc1cc(Cl)ccc1O
97.6

Complete the entry with growth for O=S(=O)(O)c1ccc(F)cc1
102

Complete the entry with growth for COc1cc(NC(C)CCCN2C(=O)c3ccccc3C2=O)c2nccc(C)c2c1OC (stereo unspecified)
119

###

Test system: RXF 393 renal
Assay: NCI-60 one-dose screen, 48 h (100 = growth as untreated, 0 = no growth, -100 = all killed)
Details: 10 µM unless noted
The panel holds about 83,000 compounds, 20% with a hit somewhere; the sample as a whole holds those more often. Active and inactive are the calls of the source. The calls were made as follows: active = growth percent below 10; inactive = the rest.
TEST READOUT: growth

Solved cases (8 shown):
STRUCTURE STRING	growth
O=C(O)c1ccc(-c2nn(-c3ccc(C(=O)O)cc3)cc2/C=N/Nc2c(F)c(F)cc(F)c2F)cc1	112% (inactive)
[2H]c1nc(Nc2ncc(F)c(-c3cc(F)c4nc(C)n(C(C)C)c4c3)n2)c([2H])c([2H])c1CN1CCN(CC)CC1	-8% (active)
Cc1cc(-c2ccccc2)nc2ccccc12	94.6% (inactive)
C#C[C@H](O)/C=C/CCCCCCC#C[C@H](O)CC[C@@H](O)C#CCCCCCC/C=C/[C@@H](O)C#C	104% (inactive)
Nc1ncc(-c2ccc3ncnc(Nc4cncc(Cl)c4)c3c2)cn1	60.3% (inactive)
C=C1C(=O)O[C@H]2[C@H]1CC/C(CNC(=O)/C1=C/CC[C@@]3(C)O[C@H]3[C@H]3OC(=O)C(=C)[C@@H]3CC1)=C\CC[C@@]1(C)O[C@@H]21	99.3% (inactive)
COC(=O)c1ccc2c(c1)Oc1ccc(Cl)cc1-c1cc(C)nn1-2	91.8% (inactive)
Cc1c(C(C)(C)C)cc(C(C)(C)C)c2c1CN(C)CO2	122% (inactive)

Now consider the entry below.
Please respond with reported growth (system RXF 393 renal) for COc1ccccc1S(=O)(=O)Nc1ccc2c3c(cc(-c4cnn(C5CC5)c4)nc13)C(=O)N2C .
89.8% (inactive)
